- Test system: 134 cancer cell lines
- EXPERIMENT NOTES: Cell viability assay (ATPlite, 72 hours), IC50 on cancer cell line panel
- SETUP CONDITIONS: Homo sapiens, MDA-MB-231, read-out: IC50 in cell proliferation assay, MDA-MB-231 cell line
pIC50: −log10 of the molar value.
Listing of recorded pIC50 by entry.

The cases that follow already have their pIC50 on record.
compound="CC(C)(C)c1nc(-c2cccc(NS(=O)(=O)c3c(F)cccc3F)c2F)c(-c2ccnc(N)n2)s1 [dabrafenib]" result="< 5.00"
compound="FC(F)(F)c1ccc(CNc2ccc(Cc3c[nH]c4ncc(Cl)cc34)cn2)cn1 [pexidartinib]" result="< 4.50"

Lookup result for Cc1nc(NC(=O)N2CCC[C@H]2C(N)=O)sc1-c1ccnc(C(C)(C)C(F)(F)F)c1 [alpelisib] ; measured pIC50: < 4.50

---

This section presents compounds with their documented inhibition at 1 µM values.
- TESTED TARGET: panel of 255 wild-type kinases (Homo sapiens, UniProt Q9NQU5)
- Sequence (Q9NQU5 whole entry): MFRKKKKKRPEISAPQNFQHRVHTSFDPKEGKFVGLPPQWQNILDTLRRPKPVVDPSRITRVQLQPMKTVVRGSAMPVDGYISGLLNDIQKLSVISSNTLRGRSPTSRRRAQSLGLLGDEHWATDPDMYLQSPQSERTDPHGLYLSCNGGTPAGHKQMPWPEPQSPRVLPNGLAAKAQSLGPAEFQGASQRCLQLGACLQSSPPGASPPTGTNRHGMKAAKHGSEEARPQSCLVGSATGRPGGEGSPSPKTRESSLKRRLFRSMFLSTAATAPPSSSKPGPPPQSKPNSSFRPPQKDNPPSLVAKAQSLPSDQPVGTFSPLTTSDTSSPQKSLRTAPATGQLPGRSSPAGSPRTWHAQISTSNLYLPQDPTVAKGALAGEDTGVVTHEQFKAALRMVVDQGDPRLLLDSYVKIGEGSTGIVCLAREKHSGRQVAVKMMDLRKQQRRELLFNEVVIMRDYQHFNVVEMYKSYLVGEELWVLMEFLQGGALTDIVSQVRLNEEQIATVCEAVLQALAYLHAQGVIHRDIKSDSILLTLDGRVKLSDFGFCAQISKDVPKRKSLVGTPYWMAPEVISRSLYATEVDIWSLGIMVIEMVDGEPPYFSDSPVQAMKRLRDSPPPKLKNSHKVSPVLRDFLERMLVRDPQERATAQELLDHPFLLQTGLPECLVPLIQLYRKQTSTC
- EXPERIMENT NOTES: Kinase panel profiling at 1 µmol/L (MSA or IMAP), percentage inhibition
- Format: biochemical
- SETUP CONDITIONS: PAK6; 1 µmol/L single concentration; read-out: %-inhibition, PAK6
Expressed in %, but write only the number.

Some compounds with known inhibition at 1 µM results, for comparison:
mol_smiles=C[C@H](Nc1ncnc2nc[nH]c12)c1cc2cccc(Cl)c2c(=O)n1-c1ccccc1 numeric_readout=3.69
mol_smiles=Cc1nc(NC(=O)N2CCC[C@H]2C(N)=O)sc1-c1ccnc(C(C)(C)C(F)(F)F)c1 numeric_readout=10
mol_smiles=Cn1cnc2c(F)c(Nc3ccc(Br)cc3Cl)c(C(=O)NOCCO)cc21 numeric_readout=12
mol_smiles=Cn1cnc2c(F)c(Nc3ccc(Br)cc3F)c(C(=O)NOCCO)cc21 numeric_readout=4.75

// O=C(Nc1cnn2ccc(N3CCC[C@@H]3c3cc(F)ccc3F)nc12)N1CC[C@H](O)C1 : inhibition at 1 µM value = 13

Kindly note the recorded inhibition at 1 µM for CO[C@]1(C(=O)N[C@@H](C)c2ccc(-n3cc(F)cn3)nc2)CC[C@H](c2nc(C)cc(Nc3cc(C)[nH]n3)n2)CC1 , which is 42

Lookup result for FC(F)(F)c1ccc(CNc2ccc(Cc3c[nH]c4ncc(Cl)cc34)cn2)cn1 ; measured inhibition at 1 µM: 0.273

What the record says about CN1CCN(c2ccc(C(=O)Nc3n[nH]c4ccc(Cc5cc(F)cc(F)c5)cc34)c(NC3CCOCC3)c2)CC1 : inhibition at 1 µM is 15

Reported inhibition at 1 µM ( CCn1c(=O)c(-c2cc(NC(=O)Nc3ccccc3)c(F)cc2Br)cc2cnc(NC)cc21 ) = 1.15

For record CCc1nc(C(N)=O)c(Nc2ccc(N3CCC(N4CCN(C)CC4)CC3)c(OC)c2)nc1NC1CCOCC1 the listed inhibition at 1 µM is 22

inhibition at 1 µM in this record for C=CC(=O)N1CCC([C@@H]2CCNc3c(C(N)=O)c(-c4ccc(Oc5ccccc5)cc4)nn32)CC1 : 11

Quick note, inhibition at 1 µM for C[C@H]1Oc2cc(cnc2N)-c2c(nn(C)c2C#N)CN(C)C(=O)c2ccc(F)cc21 landed at 14

get_value(item= CCN1CCN(c2ccc(Nc3cc(N(C)C(=O)Nc4c(Cl)c(OC)cc(OC)c4Cl)ncn3)cc2)CC1 , readout=inhibition at 1 µM) returns 10

What the record says about COC(=O)N[C@@H](C)CNc1nccc(-c2cn(C(C)C)nc2-c2cc(Cl)cc(NS(C)(=O)=O)c2F)n1 : inhibition at 1 µM is 13

Record Cn1cc(-c2cc3c(N4CCN(c5ncc([C@@](C)(N)c6ccc(F)cc6)cn5)CC4)ncnn3c2)cn1 . Reported inhibition at 1 µM: 9

Measured values drawn from paper PMC9516332 for this set.
